# System: 786-0
# assay: NCI tumour cell line growth inhibition, 48 h
Calls of active or inactive are those of the source. Cut-off read from the data, not from the text of the source: active = GI50 up to about 1.1 µM and inactive = higher. Square brackets hold non-standard residues; d marks the D form. Peptide text beside a SMILES is read from it. * marks the point of attachment. ξ: configuration not given here. NMeN = CN[C@@H](CC(N)=O)C(=O)O; NMeV = CN[C@H](C(=O)O)C(C)C; ξNMeV = CNC(C(=O)O)C(C)C; Boc = CC(C)(C)OC(=O)*; ξNMeA = CNC(C)C(=O)O
Item-by-item account of GI50

Examples with answers:
molecule="CON1C(=O)C2(CCCCC2)C(=O)C12C=CC(C)CC2 (configuration not stated)" experimental_result="> 100 µM (inactive)"
molecule="COc1ccc(C2=CC3CCC2C3)cc1 (configuration not stated)" experimental_result="> 100 µM (inactive)"
molecule="CC1NOC(=O)C1/N=N/c1ccccc1Cl (configuration not stated)" experimental_result="26.5 µM (inactive)"
molecule="C[C@]12CCC3c4ccc(OC(=O)c5ccccc5)cc4CC[C@H]3C1CC[C@@H]2OC(=O)C12OC1CCC2=O (some centres not stated)" experimental_result="2.67 µM (inactive)"
molecule=CCCCCCCCCCCCCCN experimental_result="> 100 µM (inactive)"

Req: Entry under review: COC(=O)/C=C1\CCC(C)O1 (configuration not stated) . Reported GI50?
Resp: > 100 µM (inactive)

Req: Can you check COC(=O)C(C)N(C)C(=O)[C@H](CC(N)=O)N(C)C(=O)[C@@H]1CCCN1C(=O)[C@H](C(C)C)N(C)C(=O)C(C(C)C)N(C)C(=O)[C@@H](NC(=O)OC(C)(C)C)C(C)C (some centres not stated) (Boc-V[ξNMeV][NMeV]P[NMeN][ξNMeA]-OMe) next?
Resp: > 50 µM (inactive)

Req: Can you check C=C1C(=O)OC2/C=C(/C)C3(O)OC(C)(CC(OC(=O)C(C)C)C12)CC3OC(C)=O (configuration not stated) next?
Resp: 5.27 µM (inactive)

Req: Can you check O=c1[nH]nc(-c2ccccc2)n1/N=C/c1ccco1 next?
Resp: > 100 µM (inactive)

Req: Can you check CNC(C)Cc1ccc(O)cc1 (configuration not stated) next?
Resp: > 100 µM (inactive)

Req: Can you check O=C1CCCn2c(nc3ccccc32)N1 next?
Resp: > 100 µM (inactive)

Req: Can you check Nc1ncnc2c1ncn2CC(O)CO (configuration not stated) next?
Resp: > 100 µM (inactive)

###

# Test system: SNB-75
# assay: NCI tumour cell line growth inhibition, 48 h
Calls of active or inactive are those of the source. Cut-off read from the data, not from the text of the source: active = GI50 up to about 1.1 µM and inactive = higher.
Field 'call' accepts active, inactive

compound=CCOc1ccc(NC(=O)/C(=C\c2ccc(C)cc2)C(C)=O)cc1 assigned_class=inactive
compound=Cc1ccc(NS(=O)(=O)c2cc(C(C)(C)C)ccc2OCCOCCOCCOc2ccc(C(C)(C)C)cc2S(=O)(=O)Nc2ccc(C)cc2)cc1 assigned_class=inactive
compound=O=C1CCCn2c(nc3ccccc32)N1 assigned_class=inactive
compound=C#C[C@]1(O)CC[C@H]2[C@@H]3CCC4=C/C(=N\OCCN5CCCCC5)CC[C@]4(C)[C@H]3CC[C@@]21C assigned_class=inactive
compound="CC1CC(=O)C2CC(CO)=CCCC2C1(C)CC/C(=C/CO)CO (configuration not stated)" assigned_class=inactive

Req: Field: outcome | Entry: NC(CCc1ncc(C(=O)O)s1)C(=O)O (configuration not stated)
Resp: inactive

Req: Can you check CC[S+]1C2=C(CC(C)(C)CC2=O)[N-]c2ccccc21 (configuration not stated) next?
Resp: inactive

Req: Can you check CCCCCCCCCCCC(=O)OCC1OC(n2cc(F)c(=O)[nH]c2=O)C(N)C(O)C1O (configuration not stated) next?
Resp: inactive

Req: Can you check COc1ccc(N2C(=O)C(C#N)=C(SC)C(C#N)C2=O)cc1 (configuration not stated) next?
Resp: inactive

###

# System: HOP-62
# assay: NCI tumour cell line growth inhibition, 48 h
Activity calls are given as the source filed them. Cut-off read from the data, not from the text of the source: active = GI50 up to about 1.1 µM and inactive = higher.
Field 'call' accepts active, inactive

Sample answers from the record:
molecule=C=C1[C@@](C)([C@@H]2CCCS2)[C@H]2C(C)=C[C@]1(C)n1c(=O)n(-c3ccccc3)c(=O)n12 assigned_class=inactive
molecule=CCOP(=O)(OCC)/C(C#N)=C/c1ccccn1 assigned_class=inactive
molecule=O=C1Oc2ccccc2N/C1=C/C(=O)c1ccc([N+](=O)[O-])cc1 assigned_class=inactive
molecule=O=[N+]([O-])C(/C=C(\Cl)[N+](=O)[O-])=C(N1CCOCC1)N1CCOCC1 assigned_class=inactive
molecule="CCC1=NC(CO)[C@H](c2ccccc2)O1 (some centres not stated)" assigned_class=inactive

Req: Field: outcome | Entry: O=C1c2ccccc2-c2nc(-c3ccccc3)cc3c2c1nc1ccccc13
Resp: inactive

###

# System: MOLT-4
# assay: NCI tumour cell line growth inhibition, 48 h
The source made the active and inactive calls. Cut-off read from the data, not from the text of the source: active = GI50 up to about 1.1 µM and inactive = higher.
Field 'call' accepts active, inactive

Sample answers from the record:
compound=c1ccc2c(c1)ncn2CCn1ccnc1 assigned_class=inactive
compound=COC(=O)C1=Cc2cc(OC)c(O)cc2[C@@H](c2ccc(O)c(OC)c2)[C@@H]1C(=O)OC assigned_class=inactive
compound=COc1ccc2c(=O)c(C)c(-c3ccccc3)oc2c1CN(C)C assigned_class=inactive
compound="NCCN1C(=O)c2ccccc2C1c1ccc(Cl)cc1 (stereo not given)" assigned_class=inactive
compound=S=C1N(c2ccc(Cl)cc2)C2=C(/N=N/c3ccccc3)C(=Nc3ccccc3S2)N1c1ccccn1 assigned_class=inactive
compound="C=C(CCCCCCCCC)CC(=O)SCCNC(=O)CCNC(=O)C(O)C(C)(C)COP(=O)(O)OP(=O)(O)OCC1OC(n2cnc3c(N)ncnc32)C(O)C1OP(=O)(O)O (stereo not given)" assigned_class=inactive

Req: Field: outcome | Entry: O=[N+]([O-])C(/C=C(\Cl)[N+](=O)[O-])=C(N1CCOCC1)N1CCOCC1
Resp: inactive

###

# Tested on: SF-295
# assay: NCI tumour cell line growth inhibition, 48 h
Active and inactive are the calls of the source. No stated cut-off is given here; in the data, active = GI50 up to about 1.1 µM and inactive = higher.
property-label: GI50

compound="CON1C(=O)C2(CCCCC2)C(=O)C12C=CC(C)CC2 (stereo unspecified)" property_label=GI50 experimental_result="> 100 µM (inactive)"
compound="CC1CC(=O)C2CC(CO)=CCCC2C1(C)CC/C(=C/CO)CO (stereo unspecified)" property_label=GI50 experimental_result="> 100 µM (inactive)"
compound=O=c1c2c(F)c(F)c(F)c(F)c2sc2nccn12 property_label=GI50 experimental_result="17.9 µM (inactive)"
compound="COP(=O)(O)C(N)Cc1c[nH]c2ccccc12 (stereo unspecified)" property_label=GI50 experimental_result="> 100 µM (inactive)"
compound=CCCCCCCC/C=C\CCCCCCCC(=O)O property_label=GI50 experimental_result="99.1 µM (inactive)"

Now for the compound whose GI50 we want.
Req: Entry under review: CSc1nc(-c2ccc(C)cc2)c(C#N)c(=O)[nH]1 . Reported GI50?
Resp: > 100 µM (inactive)

###

# System: M14
# assay: NCI tumour cell line growth inhibition, 48 h
Calls of active or inactive are those of the source. No stated cut-off is given here; in the data, active = GI50 up to about 1.1 µM and inactive = higher.
property-label: GI50

Examples with answers:
compound=N=c1oc2cc(O)c(O)cc2cc1C(N)=O experimental_result="> 100 µM (inactive)"
compound=OCCCN(CCc1ccc(Cl)c(Cl)c1)CCN1CCCC1 experimental_result="17.4 µM (inactive)"
compound="O=C(O)CP(=S)(S)c1ccccc1 (stereo not drawn)" experimental_result="> 100 µM (inactive)"

Req: Entry under review: COc1ccc(C2=C(OC(=O)N(C)C)c3cccn3-c3cc(Cl)ccc3S2)cc1 . Reported GI50?
Resp: > 10 µM (inactive)

Req: Can you check CCOC(=O)C(C)(C)C(O)C(C)C (stereo not drawn) next?
Resp: > 100 µM (inactive)

Req: Can you check NNC(=O)c1ccc(OCc2nc3ccccc3[nH]2)cc1 next?
Resp: 53.1 µM (inactive)

Req: Can you check O/N=C1/COC(C(F)(F)F)(C(F)(F)F)C1 next?
Resp: > 100 µM (inactive)

Req: Can you check CCC(C#N)NCc1cccc(CNC(C#N)CC)c1 (stereo not drawn) next?
Resp: 17.6 µM (inactive)

###

# Tested on: OVCAR-5
# assay: NCI tumour cell line growth inhibition, 48 h
The source made the active and inactive calls. Cut-off read from the data, not from the text of the source: active = GI50 up to about 1.1 µM and inactive = higher.
Item-by-item account of GI50

compound="O=C(Nc1ccccc1)N(C1=NCC(CI)S1)c1ccc(F)cc1F (centres undefined)" property_label=GI50 experimental_result="> 100 µM (inactive)"
compound=COc1ccccc1C(=O)Nc1ccc(Cl)c(C(=O)OC(C)C)c1 property_label=GI50 experimental_result="> 50 µM (inactive)"
compound=COC(=O)[C@@H](NC1(c2ccccc2)c2ccccc2-c2ccccc21)[C@H](OC(=O)[C@H]1CCCN1S(=O)(=O)c1ccccc1)C(=O)OC property_label=GI50 experimental_result="> 100 µM (inactive)"
compound=c1cc2c(cnc3cscc32)s1 property_label=GI50 experimental_result="> 100 µM (inactive)"
compound=O=C1C(=O)N(c2cc(Cl)ccc2Cl)C(=O)C(=O)C1c1nc2ccccc2o1 property_label=GI50 experimental_result="> 100 µM (inactive)"

Req: Entry under review: CC1(C)[C@@H]2CC[C@]1(C)[C@H](OC(=O)CSC#N)C2 . Reported GI50?
Resp: > 100 µM (inactive)

Req: Can you check Clc1ccc(-c2nn3c(-c4ccncc4)nnc3s2)cc1 next?
Resp: > 100 µM (inactive)

Req: Can you check C#C[C@H]1CCCCCC1O (some centres undefined) next?
Resp: > 100 µM (inactive)

Req: Can you check CC1(COS(=O)(=O)OCC2(C)COS(=O)(=O)OC2)COS(=O)(=O)OC1 next?
Resp: > 100 µM (inactive)

Req: Can you check CC1(O)C(C)(O)C(C)(O)C1(C)O (centres undefined) next?
Resp: > 100 µM (inactive)

Req: Can you check Cn1c(=O)cc(NNc2ccc(Cl)c(Cl)c2)[nH]c1=O next?
Resp: 14.4 µM (inactive)

Req: Can you check O=C(OCCN=c1c2ccccc2ccc2ccccc12)c1cc([N+](=O)[O-])cc([N+](=O)[O-])c1 next?
Resp: > 100 µM (inactive)

Req: Can you check CC1=C(C(=O)Nc2ccc([N+](=O)[O-])cc2)C(c2cccc([N+](=O)[O-])c2)C(C(=O)Nc2ccc([N+](=O)[O-])cc2)=C(C)N1 next?
Resp: > 100 µM (inactive)

Req: Can you check BrC1=CCC23CC=C(Br)[C@H]4CC2(COC3)C[C@@H]1O4 (some centres undefined) next?
Resp: 21.2 µM (inactive)

Req: Can you check NC(=O)N/N=C(\C(=O)C(=O)Nc1ccc(Cl)c(C(F)(F)F)c1)c1nc2ccc(C(=O)c3ccccc3)cc2nc1O next?
Resp: > 100 µM (inactive)

Req: Can you check COc1ccc2c(c1)/C(=C\c1c(Cl)[nH]c3ccccc13)C(=O)N2 next?
Resp: 10.9 µM (inactive)

Req: Can you check COc1ccc([C@]23CCN(S(=O)(=O)c4ccc(C)cc4)[C@H]2[C@H](CO)C2(CC3)OCC(C)(C)CO2)cc1OC next?
Resp: > 100 µM (inactive)

Req: Can you check COC(=O)[C@]12CC3C=CC1N(C3)C(CBr)c1c2n(S(=O)(=O)c2ccccc2)c2ccccc12 (some centres undefined) next?
Resp: > 100 µM (inactive)

Req: Can you check O=[N+]([O-])c1ccc(/C(=C\c2ccccc2)Cn2ccnc2)cc1 next?
Resp: 61.5 µM (inactive)

Req: Can you check O=C1c2ccccc2C(=O)N1CCn1nc(-c2ccccc2)cc(-c2ccccc2)c1=O next?
Resp: > 100 µM (inactive)

Req: Can you check CN(CCCNC(=O)c1nn(-c2ccccc2)c2c1ccc1ccccc12)CCCNC(=O)c1nn(-c2ccccc2)c2c1ccc1ccccc12 next?
Resp: 2.3 µM (inactive)

Req: Can you check C/C(=C\c1ccccc1)C(O)C(=O)c1nc2ccc(Cl)cc2nc1O (centres undefined) next?
Resp: > 100 µM (inactive)

Req: Can you check Cn1nc(-c2ccc(S(=O)(=O)N/C(=N/c3ccc(Cl)cc3)NN)s2)cc1C(F)(F)F next?
Resp: 15.9 µM (inactive)

Req: Can you check Cc1cn(CCC(N)C(=O)O)c(=O)[nH]c1=O (centres undefined) next?
Resp: > 100 µM (inactive)
